// furin cleavage Z-score lookup, one value per entry
MEASURED ON: furin, P09958
Sequence (P09958 whole entry): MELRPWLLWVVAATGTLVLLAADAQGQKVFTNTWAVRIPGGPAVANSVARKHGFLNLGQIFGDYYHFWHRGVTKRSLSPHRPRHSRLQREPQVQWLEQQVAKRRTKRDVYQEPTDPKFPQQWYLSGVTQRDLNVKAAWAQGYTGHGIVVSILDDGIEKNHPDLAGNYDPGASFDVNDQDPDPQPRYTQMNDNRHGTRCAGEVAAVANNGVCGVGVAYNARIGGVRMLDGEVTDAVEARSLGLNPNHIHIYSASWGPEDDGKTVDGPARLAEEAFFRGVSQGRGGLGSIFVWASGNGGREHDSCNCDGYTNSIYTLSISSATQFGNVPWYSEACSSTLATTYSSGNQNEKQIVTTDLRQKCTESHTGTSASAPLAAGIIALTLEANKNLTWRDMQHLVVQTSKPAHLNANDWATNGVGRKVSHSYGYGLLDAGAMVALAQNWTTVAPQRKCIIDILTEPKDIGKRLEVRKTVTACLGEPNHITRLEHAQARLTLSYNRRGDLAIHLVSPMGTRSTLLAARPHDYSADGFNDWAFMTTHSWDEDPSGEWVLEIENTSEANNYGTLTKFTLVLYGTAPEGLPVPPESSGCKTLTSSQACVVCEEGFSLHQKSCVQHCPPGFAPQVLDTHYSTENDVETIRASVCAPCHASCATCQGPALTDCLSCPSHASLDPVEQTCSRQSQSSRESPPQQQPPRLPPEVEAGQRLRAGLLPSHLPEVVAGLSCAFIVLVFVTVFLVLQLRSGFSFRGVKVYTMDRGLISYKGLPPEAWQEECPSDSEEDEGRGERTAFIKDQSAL
ASSAY METHOD TEXT: furin cleavage Z-score vs untreated control; higher = more cleavage, active = 3.5 or more, inactive = 1 or less, 8 variable residues between constant flanks;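 note: purified furin at 1:10 enzyme:substrate in 50 mM HEPES pH 7.5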
MEASUREMENT PARAMETERS: 7.5 min
The list shows a part of the results. No count for the full screen is at hand.
# answer = number (no unit)

Example results:
{"ORDERED RESIDUES": "CARSQRRKKAAGNASASA [FS-865]", "MEASURE NAME": "furin cleavage Z-score", "DATA VALUE": 4.39}
{"ORDERED RESIDUES": "CAEDLVNLLPAGNASASA [HC1099]", "MEASURE NAME": "furin cleavage Z-score", "DATA VALUE": 0.711}
{"ORDERED RESIDUES": "CAGREERRRQAGNASASA [FS-787]", "MEASURE NAME": "furin cleavage Z-score", "DATA VALUE": -0.438}

Indicate the recorded furin cleavage Z-score value for this sequence: CANMWRCPRQAGNASASA [FS-181]
1.61

Identify measured furin cleavage Z-score associated with CAIFRRRPRQAGNASASA [FS-801]
5.14

Quickly give me recorded furin cleavage Z-score for CAYSTYGKFLAGNASASA [HC807]
0.775

Give furin cleavage Z-score for CARKQRKKKAAGNASASA [FS-1262]
0.332
